// provenance: paper PMC7534330

Assay: Pharmacokinetics of five components in rat plasma after oral administration of RPT, LPT and HPT extracts (UHPLC-MS/MS)
Details: male, SD, in vivo, 1.9 g/kg, rat plasma, oral RPT extract 1.9 g/kg, mean ± SD, n = 6, read-out: AUC0-t
METRIC: AUC(0-t) (ng·h/mL)

* COc1cc(C=CC(=O)O)cc(OC)c1OC | 91.7

###

Assay: Pharmacokinetics of five components in rat plasma after oral administration of RPT, LPT and HPT extracts (UHPLC-MS/MS)
Conditions: male, SD, in vivo, 1.9 g/kg, rat plasma, oral RPT extract 1.9 g/kg, mean ± SD, n = 6, read-out: MRT0-t
Description: A Thermo Hypersil Gold C18 column (3.0 × 100 mm, i.d.; 3 μm) was used for chromatographic separation. An aqueous 10 mM ammonium acetate solution (A) and acetonitrile (B) were selected as the mobile phase components. […] Male SD rats were randomly divided into four groups (n = 6 in each group), including the RPT group, LPT group, HPT group and control group. […] The separated supernatant samples were preserved at −80 °C until they were measured. […]
METRIC: MRT last

- COc1cc(C=CC(=O)O)cc(OC)c1OC [TMCA, 3,4,5-trimethoxycinnamic acid]: 4.37 h

###

Test: Pharmacokinetics of five components in rat plasma after oral administration of RPT, LPT and HPT extracts (UHPLC-MS/MS)
Details: male, SD, in vivo, 1.9 g/kg, rat plasma, oral RPT extract 1.9 g/kg, mean ± SD, n = 6, read-out: Cmax
METRIC: Cmax (ng/mL)

• COc1cc(C=CC(=O)O)cc(OC)c1OC = 38.8

###

Assay: Pharmacokinetics and absolute bioavailability of five compounds after oral and i.v. administration (UHPLC-MS/MS)
Format: in vivo
Settings: SD, in vivo, iv; rat, i.v. administration; A5 0.74, A6 1.16, DSS 1.60, TFSA 5.00, TMCA 0.31 mg/kg; n = 6; read-out: t1/2 (converted)
METRIC: half-life

• COc1cc(C=CC(=O)O)cc(OC)c1OC = 37.2 min

###

Entries annotated with measured Auto-sampler stability, Mean
Experiment: Stability of the five analytes in rat plasma
Format: in vitro ADME
Conditions: rat, 24 h, 1600 ng/mL
METRIC: Auto-sampler stability, Mean (%)

- COc1cc(/C=C/C(=O)O[C@H]2[C@H](O)[C@@H](CO)O[C@@]2(CO)O[C@H]2O[C@H](CO)[C@@H](O)[C@H](O)[C@H]2O)ccc1O: 98.7
- COc1cc(/C=C/C(=O)O[C@H]2[C@H](O)[C@@H](CO)O[C@@]2(CO)O[C@H]2O[C@H](COC(=O)c3ccc(O)cc3)[C@@H](O)[C@H](O)[C@H]2O)cc(OC)c1OC [TFSA, tenuifoliside A]: 96.3
- COc1cc(C=CC(=O)OCC2OC(OC3(CO)OC(CO)C(O)C3OC(=O)C=Cc3cc(OC)c(O)c(OC)c3)C(O)C(O)C2O)cc(OC)c1O (stereo not shown): 98.6
- COc1cc(C=CC(=O)OC2C(O)C(CO)OC2(CO)OC2OC(CO)C(O)C(O)C2O)cc(OC)c1O (stereo not shown): 97.3

###

Assay: Pharmacokinetics of five components in rat plasma after oral administration of RPT, LPT and HPT extracts (UHPLC-MS/MS)
Conditions: male, SD, in vivo, 1.9 g/kg, rat plasma, oral RPT extract 1.9 g/kg, mean ± SD, n = 6, read-out: AUC0-∞
METRIC: AUC(0-inf) (ng·h/mL)

* COc1cc(C=CC(=O)O)cc(OC)c1OC | 132
